Conditions: buffer; pH 7.4; 200.0 µM
assayEndpoint: solubility kinetic

Below, 5 compounds whose answers are already recorded.
>>> df
                                compound      reported
0  COc1cccc(-c2nc(N3CCCC3)c3ccccc3n2)c1O   < 0.2 µg/mL
1       Cc1cc(C(=O)NC2Cc3ccccc3C2)c(C)o1  > 38.3 µg/mL
2   O=C(CNS(=O)(=O)c1cccs1)NCc1ccc(F)cc1  > 49.3 µg/mL
3      Cc1cc(Cl)nc(Cl)c1C(=O)NCCc1ccccc1  > 46.4 µg/mL
4  O=C(Nc1ccc(NC(=O)c2cccs2)cc1)c1ccccc1   < 0.3 µg/mL

Data point: Cc1cccc(C)c1NC(=O)N1CC=CCC1 ; solubility kinetic = > 34.5 µg/mL

====

The entries below come with measured solubility kinetic values attached.
Details: buffer; pH 7.4; 200.0 µM

Below, 8 compounds whose answers are already recorded.
>>> print(df.to_string())
                                   compound       assayendpoint      reported
0  CC1CCCCC1NC(=O)C1CC(=O)N(Cc2ccccc2)C1 (configuration not stated)  solubility kinetic  > 47.2 µg/mL
1  CCCCOc1ccc(/C=C(\C(=O)O)c2ccc(S(=O)(=O)N3CCCC3)s2)cc1  solubility kinetic  > 65.3 µg/mL
2  O=C(O)c1ccc(N=Cc2c(O)ccc3oc4c(c23)CCCC4)cc1  solubility kinetic  > 50.3 µg/mL
3  CC(=O)N1CC(C(=O)Nc2ccc3c(c2)OCO3)Oc2ccccc21 (configuration not stated)  solubility kinetic  > 51.1 µg/mL
4    Cc1onc(-c2c(Cl)cccc2Cl)c1C(=O)N1CCCCC1  solubility kinetic  > 50.9 µg/mL
5        NC(=O)c1cc(S(=O)(=O)NCc2ccccc2)cs1  solubility kinetic  > 44.5 µg/mL
6           CCOc1ccccc1NC(=O)NC1Cc2ccccc2C1  solubility kinetic   < 0.3 µg/mL
7         CCOC(=O)C(=O)N1CCN(c2ccccc2OC)CC1  solubility kinetic  > 43.9 µg/mL

Data point: Cc1cc(C)c(S(=O)(=O)N2CCN(C(=O)N(C)C)CC2)c(C)c1 ; solubility kinetic = > 50.9 µg/mL

Data point: COCCCNC(=S)NCCc1ccc(F)cc1 ; solubility kinetic = > 40.6 µg/mL

====

The entries below come with measured solubility kinetic values attached.
Details: buffer; pH 7.4; 200.0 µM

>>> print(df.to_string())
                                   compound       assayendpoint      reported
0  O=C(Nc1cccc(C(=O)Nc2ccccc2C(=O)O)c1)c1cccc(Cl)c1  solubility kinetic  > 59.2 µg/mL
1  COc1ccc(C(CNC(=O)c2cc(S(=O)(=O)NCc3ccco3)ccc2C)N(C)C)cc1 (stereo not drawn)  solubility kinetic  > 70.7 µg/mL

Data point: COc1nc(-c2cccc([N+](=O)[O-])c2)nc2ccccc12 ; solubility kinetic = < 0.2 µg/mL

====

Conditions: buffer; pH 7.4; 200.0 µM
assayEndpoint: solubility kinetic (µg/mL)
Expressed in µg/mL, but write only the number.

Below, 3 compounds whose answers are already recorded.
>>> df
                                smilesentry       assayendpoint  reported
0        COc1ccc(OC)c2c1sc(=NC(=O)C1CC1)n2C  solubility kinetic       0.9
1  CCOC(=O)N1CCN(C(=O)/C=C/c2ccc(OC)cc2)CC1  solubility kinetic      36.1
2       Cc1cc(C(=O)Nc2cccc(C)c2C)c2ccccc2n1  solubility kinetic      40.1

Data point: COc1ccc(NC(=O)c2ccc(C)cc2)cc1 ; solubility kinetic = 5.4
